# Tested on: chick dorsal root ganglia
# Procedure summary: Chick dorsal root ganglion cultures and neurite outgrowth
# Assay type: cell-based
# Measurement setup: chick DRG explants, 48 h after drug treatment; read-out: ED50, neurite outgrowth
Quantity measured: EC50 (nM)
Write the value in nM as a bare number.

Recorded result, CCC(C)(C)C(=O)C(=O)N1CCC[C@H]1C(=O)OCCCc1ccc2c(c1)OCO2 [Example 5] , EC50: 10

Kindly note the recorded EC50 for O=C(C(=O)N1CCC[C@H]1C(=O)OC(CCc1ccccc1)c1ccccc1)C1CCCCC1 (some centres unmarked) [Example 20] , which is 0.13

###

pKi, FKBP (Homo sapiens, UniProt P62942): measured values
Notebook: values listed as pKi are -log10 of the concentration (mol/L).

Value of measured pKi for the entry O=C(C(=O)N1CCC[C@H]1C(=O)OCCCc1ccccc1)c1ccco1 : 5.40

What the record says about O=C(C(=O)N1CCC[C@H]1C(=O)OCCC(c1ccccc1)c1ccccc1)c1cccs1 : pKi is 6.82

The compound listed as O=C(C(=O)N1CCC[C@H]1C(=O)OCCC(c1ccccc1)c1ccccc1)C1CCCCC1 has a reported pKi of 7.70

# pKi of CCC(C)(C)C(=O)C(=O)N1CCC[C@H]1C(=O)OCCCc1ccc2c(c1)OCO2 = 6.77

meta.source: patent US6500959B1
